Tested on: 10 day estivated Otala lactea foot muscle GDH
Construct: native enzyme purified from foot muscle of 10-day estivated snails on GTP-agarose; high-phosphate form, sites unknown
Assay: NADH absorbance at […] nm, glutamate-synthesizing direction
Format: biochemical
Conditions: inhibitor; suboptimal substrates 0.2 mM α-ketoglutarate, 0.15 mM NADH, 40 mM NH4Cl; HEPES pH 7.2
Measured attribute: IC50

Incoming: Identify the reported IC50 for the following entry. Nc1nc2c(ncn2[C@@H]2O[C@H](COP(=O)(O)OP(=O)(O)OP(=O)(O)O)[C@@H](O)[C@H]2O)c(=O)[nH]1 [GTP]
Outgoing: 150 nM

---

The following compounds are listed with their measured IC50 values.
Tested on: control Otala lactea foot muscle GDH
Construct: native enzyme purified from foot muscle of active (control) snails on GTP-agarose; low-phosphate form, sites unknown
Assay: NADH absorbance at […] nm, glutamate-synthesizing direction
Assay type: biochemical
Conditions: inhibitor; suboptimal substrates 0.2 mM α-ketoglutarate, 0.15 mM NADH, 40 mM NH4Cl; HEPES pH 7.2
Give your result in mM as a bare value.

{"Compound": "Nc1ncnc2c1ncn2[C@@H]1O[C@H](COP(=O)(O)OP(=O)(O)OP(=O)(O)O)[C@@H](O)[C@H]1O [ATP]", "Target entity": "control Otala lactea foot muscle GDH", "IC50 [mM]": 7}

Field: next compound
Incoming: System control Otala lactea foot muscle GDH. Read-out IC50. Item Nc1nc2c(ncn2[C@@H]2O[C@H](COP(=O)(O)OP(=O)(O)OP(=O)(O)O)[C@@H](O)[C@H]2O)c(=O)[nH]1 [GTP] . Report value.
Outgoing: 0.00034
